Tested on: SNB-19 CNS
Assay: NCI-60 one-dose screen, 48 h (100 = growth as untreated, 0 = no growth, -100 = all killed)
Conditions: 10 µM unless noted
Compounds without any hit were thinned out: in the full panel of roughly 83,000, 20% have a hit. Calls of active or inactive are those of the source. How the source made its calls: active means growth percent below 10; inactive means the rest.
valueKind: growth

- compound: "CCOC(=O)CNP(=O)(OC[C@@H](Cc1ccccc1)NC(=O)c1cc2ccccc2s1)Oc1ccccc1 (stereo not given in full)"
  valueKind: "growth"
  reportedResult: "87.7% (inactive)"
- compound: "OCCOCCN(Cc1ccccn1)Cc1cc(I)cc(I)c1O"
  valueKind: "growth"
  reportedResult: "94.7% (inactive)"
- compound: "O=S(=O)(Nc1ccccc1)c1ccc(C2CC3(Cl)C(Cl)=C(Cl)C2(Cl)C3(Cl)Cl)cc1 (stereo not given)"
  valueKind: "growth"
  reportedResult: "77.6% (inactive)"
- compound: "COc1ccc2[nH]cc(-c3nc(-c4cn(C)c5c(Cl)nccc45)cs3)c2c1"
  valueKind: "growth"
  reportedResult: "79.2% (inactive)"
- compound: "N#Cc1c(NC(=O)c2ccccc2)sc2c1CCC(=O)C2"
  valueKind: "growth"
  reportedResult: "19.1% (inactive)"
- compound: "COc1cc(-c2cc(-c3ccc(N(C)C)cc3)nc(N3CCC(O)CC3)c2C#N)cc(OC)c1OC"
  valueKind: "growth"
  reportedResult: "30.2% (inactive)"
- compound: "Fc1ccc(-c2nn(-c3ccccc3)cc2-c2nc3ccccc3o2)cc1"
  valueKind: "growth"
  reportedResult: "67.3% (inactive)"
- compound: "Cc1nn(-c2ccccc2)c(Oc2ccccn2)c1-c1nc2ccccc2s1"
  valueKind: "growth"
  reportedResult: "100% (inactive)"
- compound: "CCCNC(=O)Oc1ccc(/C(=C(/C)Cc2ccc(OC)cc2)c2ccc(OCCCN(C)C)cc2)cc1"
  valueKind: "growth"
  reportedResult: "88.8% (inactive)"
- compound: "CCNc1cc(-c2cccc(OC(F)(F)F)c2)nc2ccc(N3CCCC3)cc12"
  valueKind: "growth"
  reportedResult: "27% (inactive)"
- compound: "COCCn1c(-c2csc(-c3cn(C)c4ccc(OC)cc34)n2)cc2cccnc21"
  valueKind: "growth"
  reportedResult: "85.3% (inactive)"
- compound: "Cc1nc(-c2ccccc2)cc2c(O)c(C(=O)NN)[nH]c(=O)c12"
  valueKind: "growth"
  reportedResult: "106% (inactive)"
- compound: "Cc1ccc(C2=Nc3c(N)ncnc3NC(c3ccc4c(c3)OCO4)C2)cc1 (stereo not given)"
  valueKind: "growth"
  reportedResult: "73.2% (inactive)"
- compound: "CCCCOC(=O)OCc1cc(=O)c(O)co1"
  valueKind: "growth"
  reportedResult: "99% (inactive)"
- compound: "N#CCSc1nnc2n(Cc3ccccc3)c(=O)c3c4c(sc3n12)CCCC4"
  valueKind: "growth"
  reportedResult: "104% (inactive)"
- compound: "COC(=O)c1cc(-c2ccc(S(C)(=O)=O)cc2)[nH]c1N/N=C/c1c(Cl)cccc1Cl"
  valueKind: "growth"
  reportedResult: "22.8% (inactive)"
- compound: "CC(=O)Nc1nc2ccc(NS(=O)(=O)c3cccc4c(N(C)C)cccc34)cc2[nH]1"
  valueKind: "growth"
  reportedResult: "52.3% (inactive)"
- compound: "COC(=O)c1cc(-c2ccccc2)[nH]c1N/N=C/c1c(Cl)cccc1Cl"
  valueKind: "growth"
  reportedResult: "13.6% (inactive)"
- compound: "O=C1c2cccnc2C(=O)c2c1c(C(=O)NCCCN1CCCCC1)c1ccccn21"
  valueKind: "growth"
  reportedResult: "-72.8% (active)"
- compound: "C=C1C(=O)O[C@H]2[C@H]1CC/C(COC(=O)CCSCCC(=O)OC/C1=C/CC[C@@]3(C)O[C@H]3[C@H]3OC(=O)C(=C)[C@@H]3CC1)=C\\CC[C@@]1(C)O[C@@H]21"
  valueKind: "growth"
  reportedResult: "55% (inactive)"
